Experiment: in vitro
Conditions: mouse, plasma

structure_as_smiles	scale_unit	remaining at 1 h
CN(C)CCc1c[nH]c2cccc(OC(=O)CCCC(=O)Oc3cccc4[nH]cc(CCN(C)C)c34)c12	%	0

* * *

Experiment: in vitro
Conditions: dog, plasma

compound	remaining at 2 h (%)
CN(C)CCc1c[nH]c2cccc(OC(=O)CCCC(=O)Oc3cccc4[nH]cc(CCN(C)C)c34)c12 [Compound I-24]	0

* * *

Each entry below carries its recorded microsomal CLint at 2 µM.
Assay: in vitro
Conditions: rat, microsomes
Counter-ions that a name gives are not always drawn.
recorded_endpoint: microsomal CLint at 2 µM

compound	obs_value
CC(C)N(CCc1c[nH]c2cccc(OC(=O)CCCC(=O)Oc3cccc4[nH]cc(CCN(C(C)C)C(C)C)c34)c12)C(C)C [Compound I-37, dihydrochloride]	> 307 µL/min/mg
CN(C)CCc1c[nH]c2cccc(OC(=O)CCCC(=O)Oc3cccc4[nH]cc(CCN(C)C)c34)c12 [Compound I-24]	> 307 µL/min/mg
